Listed next: entries and their corresponding patients with anti-drug antibodies.
- method: patients with anti-drug antibodies; higher = more immunogenic
testReadout: patients with anti-drug antibodies (%)

unnamed (protein) chain 1: QVQLQESGPGLVKPSETLSLTCTVSGFSLTNYGIHWIRQPPGKGLEWLGVIWARGFTNYNSALMSRLTISKDNSKNQVSLKLSSVTAADTAVYYCARANDGVYYAMDYWGQGTLVTVSS chain 2: DFVMTQSPAFLSVTPGEKVTITCSAQSSVNYIHWYQQKPDQAPKKLIYDTSKLASGVPSRFSGSGSGTDYTFTISSLEAEDAATYYCQQWTTNPLTFGQGTKVEIK: 2.6
unnamed (protein) chain 1: QVQLQQSGAEVKKPGSSVRVSCKASGGTFNNNAINWVRQAPGQGLEWMGGIIPMFGTAKYSQNFQGRVAITADESTGTASMELSSLRSEDTAVYYCARSRDLLLFPHHALSPWGRGTMVTVSS chain 2: SSELTQDPAVSVALGQTVRVTCQGDSLRSYYASWYQQKPGQAPVLVIYGKNNRPSGIPDRFSGSSSGNTASLTITGAQAEDEADYYCSSRDSSGNHWVFGGGTELTVL: 2.4
